Experiment: Inhibition of guinea pig protein-glutamine gamma-glutamyltransferase 2 assessed as fluorescent intensity of monodansyl cadaverine
Set-up: species or system Cavia porcellus
Flag rule - IC50 less than 1 µM flags 1 (yes); the remaining entries get 0 (no).

For orientation, consider the following solved cases.
O=C(CCNCCSSCCNCCC(=O)c1ccc(Br)cc1)c1ccc(Br)cc1    1 (yes)
O=C(CCNCCSSCCNCCC(=O)c1cccc(Br)n1)c1cccc(Br)n1    0 (no)
O=C(CCNCCSSCCNCCC(=O)c1ccc(Br)s1)c1ccc(Br)s1    1 (yes)
COC(=O)C(CSSCC(NCCC(=O)c1ccncc1)C(=O)OC)NCCC(=O)c1ccncc1 (stereo not given)    0 (no)
COC(=O)C(CSSCC(NCCC(=O)c1cc2ccccc2s1)C(=O)OC)NCCC(=O)c1cc2ccccc2s1 (stereo not given)    1 (yes)
COC(=O)C(CSSCC(NCCC(=O)c1ncccn1)C(=O)OC)NCCC(=O)c1ncccn1 (stereo not given)    0 (no)

// switching to the query compound
Answer whether the compound O=C(CCNCCSSCCNCCC(=O)c1ccc2ccccc2c1)c1ccc2ccccc2c1 has IC50 strictly less than 1 µM
0 (no)

* * *

Assay: Inhibition of guinea pig protein-glutamine gamma-glutamyltransferase 2 assessed as fluorescent intensity of monodansyl cadaverine
Parameters: species or system Cavia porcellus
observationType: pIC50
Keep in mind that pIC50 stands for -log10 of concentration in molar terms.

COC(=O)C(CCSSCCC(NCCC(=O)c1ccc(Br)cc1)C(=O)OC)NCCC(=O)c1ccc(Br)cc1 (centres undefined)    5.80

Could you share which pIC50 value was measured for O=C(CCNCCSSCCNCCC(=O)c1ccc(I)s1)c1ccc(I)s1 ?
6.77

How about O=C(CCNCCSSCCNCCC(=O)c1sccc1Br)c1sccc1Br ?
6.68

Similarly, O=C(CCNCCSSCCNCCC(=O)c1cccs1)c1cccs1 ?
6.29

Follow-up item: COC(=O)C(CSSCC(NCCC(=O)c1ccc(I)s1)C(=O)OC)NCCC(=O)c1ccc(I)s1 (centres undefined)
6.62

Try this compound too: COC(=O)C(CSSCC(NCCC(=O)c1ccc(Cl)s1)C(=O)OC)NCCC(=O)c1ccc(Cl)s1 (centres undefined)
6.72

Follow-up entry: O=C(CCNCCSSCCNCCC(=O)c1ccccc1)c1ccccc1
5.66

Ok, now COC(=O)C(CCSSCCC(NCCC(=O)c1ccc(Br)s1)C(=O)OC)NCCC(=O)c1ccc(Br)s1 (centres undefined)
7.00

What do we get for COC(=O)C(CSSCC(NCCC(=O)c1ccc2ccccc2c1)C(=O)OC)NCCC(=O)c1ccc2ccccc2c1 (centres undefined) ?
4.72

* * *

Experiment: Inhibition of guinea pig protein-glutamine gamma-glutamyltransferase 2 assessed as fluorescent intensity of monodansyl cadaverine
Set-up: species or system Cavia porcellus
Reported pIC50 by item:
Remember, pIC50 is on a log scale: it is -log10 of the molar concentration.

O=C(CCNCCSSCCNCCC(=O)c1ccco1)c1ccco1    6.38

# lookup: pIC50 of COC(=O)C(CCSSCCC(NCCC(=O)c1sccc1Br)C(=O)OC)NCCC(=O)c1sccc1Br (stereo not drawn)
6.48

Next up: COC(=O)C(CSSCC(NCCC(=O)c1ccc(C#N)cc1)C(=O)OC)NCCC(=O)c1ccc(C#N)cc1 (stereo not drawn)
5.89

Same question for COC(=O)C(CCSSCCC(NCCC(=O)c1ccc(Cl)s1)C(=O)OC)NCCC(=O)c1ccc(Cl)s1 (stereo not drawn) please.
6.92

Item: N#Cc1ccc(C(=O)CCNCCSSCCNCCC(=O)c2ccc(C#N)cc2)cc1
5.96

Please answer likewise for O=C(CCNCCSSCCNCCC(=O)c1cccnc1)c1cccnc1
5.85

Now the molecule COC(=O)C(CCSSCCC(NCCC(=O)c1cc2ccccc2s1)C(=O)OC)NCCC(=O)c1cc2ccccc2s1 (stereo not drawn)
6.92

Then COC(=O)C(CSSCC(NCCC(=O)c1ncc(C)s1)C(=O)OC)NCCC(=O)c1ncc(C)s1 (stereo not drawn) ?
5.40

Let us now turn to COC(=O)C(CCSSCCC(NCCC(=O)c1cccs1)C(=O)OC)NCCC(=O)c1cccs1 (stereo not drawn)
5.44

Now consider COC(=O)C(CCSSCCC(NCCC(=O)c1ccc(I)s1)C(=O)OC)NCCC(=O)c1ccc(I)s1 (stereo not drawn) .
7.00

Also O=C(CCNCCSSCCNCCC(=O)c1ccsc1)c1ccsc1 ?
5.80

Same question for COC(=O)C(CSSCC(NCCC(=O)c1ccco1)C(=O)OC)NCCC(=O)c1ccco1 (stereo not drawn) please.
5.54

// query: O=C(CCNCCSSCCNCCC(=O)c1cc2ccccc2s1)c1cc2ccccc2s1
6.77

Entry source: ChEMBL document CHEMBL1641584
